- Test system: L1210 leukemia ip in BDF1 mice, survival T/C
- ASSAY NOTES: NCI In Vivo Anticancer Drug Screen. Data for tumor model L1210 Leukemia (intraperitoneal) in B6D2F1 (BDF1) mice
- SETTINGS: endpoint: mean survival time; dose: 100.0 mg/kg/injection; schedule: Q04DX003 (ip); vehicle: Klucel (hydroxypropylcellulose) (HPC); higher = longer survival
Toxic doses and inconclusive results are not listed.
As shown below, each of these compounds has a reported T/C value.
ENDPOINT NAME: T/C

compound=O=C(NCc1ccccc1)Nc1ccccc1 readout_value="96 % of control"
compound="CC1=CC(OC2CCCCO2)C2CC1C2(C)C (stereo not given)" readout_value="98 % of control"
compound=CC(C)(CCC(=S)N1CCOCC1)c1ccccc1 readout_value="101 % of control"
compound=C(/C=C/c1ccccc1)=Nc1ccc2c(c1)Cc1ccccc1-2 readout_value="94 % of control"
compound=CCC(=O)Nc1ccccc1OC readout_value="100 % of control"
compound="CCOC(=O)CC(N)C(=O)OCC (stereo not given)" readout_value="99 % of control"
compound=S=C1NCCS1 readout_value="108 % of control"
compound=COc1ccc([N+](=O)[O-])cc1N readout_value="101 % of control"
compound="O=C(O)C(c1ccccc1)C1CCCC1 (stereo not given)" readout_value="98 % of control"
compound="CCN(CC)CCCC(C)Nc1c2ccccc2nc2c(Cl)cccc12 (stereo not given)" readout_value="102 % of control"
compound=NC(=O)NCCc1ccccc1 readout_value="102 % of control"
compound=CCOC1=C(Br)C=CN(S(=O)(=O)c2ccc(C)cc2)c2ccc(OC)cc21 readout_value="95 % of control"
compound=Cc1cc(=O)n(-c2ccc(N)cc2)n1C readout_value="100 % of control"
compound=O=[N+]([O-])c1ccc2nc(NCCCO)c3ccccc3c2c1 readout_value="120 % of control"
compound=c1ccc(-c2[nH]c3ccccc3c2-c2ccccc2)cc1 readout_value="98 % of control"
compound=Cc1ccc(S(=O)(=O)N(C)c2ccc(CC(=O)O)cc2)cc1 readout_value="97 % of control"
compound=Cc1ccc(S(=O)(=O)NCCC(Cl)(Cl)Cl)cc1 readout_value="104 % of control"
compound="CCC(CO)Nc1nc2c(Cl)cc(Cl)cc2c2ccccc12 (stereo not given)" readout_value="100 % of control"
compound=Cc1cc(=O)[nH]n1-c1ccc([N+](=O)[O-])cc1 readout_value="94 % of control"
compound=CC(=O)Nc1ccc2c(c1)Cc1cc(Br)ccc1-2 readout_value="100 % of control"
compound=NCCSc1ccccc1C(=O)O readout_value="92 % of control"
compound=O=C(O)/C=C/S(=O)(=O)Cc1ccccc1 readout_value="98 % of control"
compound=COC(OC)c1cc(=O)[nH]c(N)n1 readout_value="93 % of control"
compound=Nc1cc(S(=O)O)c2cccnc2c1O readout_value="97 % of control"
compound="NC(C(=O)O)c1ccco1 (stereo not given)" readout_value="103 % of control"
compound=CC(C)(C)c1cc(/C=N/NC(=O)CCCCCCCCC(=O)N/N=C/c2cc(C(C)(C)C)c(O)c(C(C)(C)C)c2)cc(C(C)(C)C)c1O readout_value="111 % of control"
compound=CCCCCCCCCCCCCCC(=O)c1ccccc1 readout_value="105 % of control"
compound=O=c1[nH]c2ccccc2n1C1=CCN(Cc2ccccc2)CC1 readout_value="95 % of control"
compound=COc1cc(/C=N/N2CCN(/N=C/c3cc(OC)c(OC)c(OC)c3)CC2)cc(OC)c1OC readout_value="103 % of control"
compound=Cc1ccc(S(=O)(=O)OCCOS(=O)(=O)c2ccc(C)cc2)cc1 readout_value="90 % of control"
compound=CC(=O)Oc1cc(-c2c(C)cc(C)cc2C)c(OC(C)=O)cc1C readout_value="94 % of control"
compound="S=C1NC2CCCc3ccccc3C2O1 (stereo not given)" readout_value="111 % of control"
compound=Cc1cc(N(C)C)cc(C)c1N=Nc1cc(Cl)ccc1Cl readout_value="94 % of control"
compound="Cc1ccc(S(=O)(=O)OCC2C3CCC(C4CCC43)C2COS(=O)(=O)c2ccc(C)cc2)cc1 (stereo not given)" readout_value="96 % of control"
compound=N#Cc1ccc(-c2ccc(C#N)cc2Br)c(Br)c1 readout_value="94 % of control"
compound=Cc1ccc(NC(=S)N2CCC(CCCC3CCN(C(=S)Nc4ccc(C)c(C)c4)CC3)CC2)cc1C readout_value="88 % of control"
compound=CN(Cc1ccccc1)Cc1ccccc1 readout_value="97 % of control"
compound=C(=C\c1ccccc1)/Cc1ccccc1 readout_value="101 % of control"
compound="CCCCC(CC)CC1CCCCC1O (stereo not given)" readout_value="97 % of control"
compound="CC1CC(C)(C)OCO1 (stereo not given)" readout_value="100 % of control"

The reported measurements were obtained from PubChem BioAssay AID248.
